# tested on: T1, human IL-17A (construct not specified) (human, UniProt Q16552 24-155, limits assumed)
# T1 construct: also called huIL-17A
# T1 sequence: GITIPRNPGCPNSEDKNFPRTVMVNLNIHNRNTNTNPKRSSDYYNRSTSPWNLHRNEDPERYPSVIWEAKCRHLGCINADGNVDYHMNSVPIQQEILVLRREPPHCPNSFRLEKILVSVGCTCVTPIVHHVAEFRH
# test name: ELISA, coated huIL-17A, long wash
Below, each entry is listed with its recorded Off-rate ELISA (normalized to XAB1 Fab).

binder	unit tag	Off-rate ELISA (normalized to XAB1 Fab)
MB432 (Fab, V domains shown, Fab variant of XAB1) VH: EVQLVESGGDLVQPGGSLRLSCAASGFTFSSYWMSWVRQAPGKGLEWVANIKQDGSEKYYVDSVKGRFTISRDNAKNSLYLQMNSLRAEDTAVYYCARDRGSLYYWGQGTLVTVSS VL: AIQLTQSPSSLSASVGDRVTITCRPSQGILFALAWYQQKPGKAPKLLIYDASSLENGVPSRFSGSGSGTDFTLTISSLQPEDFATYYCQQFNSYPLTFGGGTKVEIK	fold	44.2
MB434 (Fab, V domains shown, Fab variant of XAB1) VH: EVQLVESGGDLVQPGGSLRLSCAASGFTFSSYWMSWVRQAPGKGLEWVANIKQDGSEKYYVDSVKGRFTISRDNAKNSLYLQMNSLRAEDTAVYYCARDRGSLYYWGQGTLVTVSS VL: AIQLTQSPSSLSASVGDRVTITCRPSQGIWWYLAWYQQKPGKAPKLLIYDASSLENGVPSRFSGSGSGTDFTLTISSLQPEDFATYYCQQFNSYPLTFGGGTKVEIK	fold	44.4
MB440 (Fab, V domains shown, Fab variant of XAB1) VH: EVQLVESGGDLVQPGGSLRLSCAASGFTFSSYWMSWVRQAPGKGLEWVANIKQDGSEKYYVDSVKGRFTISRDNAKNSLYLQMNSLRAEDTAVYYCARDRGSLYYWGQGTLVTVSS VL: AIQLTQSPSSLSASVGDRVTITCRPSQGILWQLAWYQQKPGKAPKLLIYDASSLENGVPSRFSGSGSGTDFTLTISSLQPEDFATYYCQQFNSYPLTFGGGTKVEIK	fold	52.5
MB461 (Fab, V domains shown, Fab variant of XAB1) VH: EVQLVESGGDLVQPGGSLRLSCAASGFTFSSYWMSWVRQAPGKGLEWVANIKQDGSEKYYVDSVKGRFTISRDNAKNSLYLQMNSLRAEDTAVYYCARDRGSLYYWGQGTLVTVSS VL: AIQLTQSPSSLSASVGDRVTITCRPSQGIYWTLAWYQQKPGKAPKLLIYDASSLENGVPSRFSGSGSGTDFTLTISSLQPEDFATYYCQQFNSYPLTFGGGTKVEIK	fold	49.8
MB453 (Fab, V domains shown, Fab variant of XAB1) VH: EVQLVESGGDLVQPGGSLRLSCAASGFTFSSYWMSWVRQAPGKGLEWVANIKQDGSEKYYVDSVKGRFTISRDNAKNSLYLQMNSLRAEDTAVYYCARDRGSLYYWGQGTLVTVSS VL: AIQLTQSPSSLSASVGDRVTITCRPSQGIVFWLAWYQQKPGKAPKLLIYDASSLENGVPSRFSGSGSGTDFTLTISSLQPEDFATYYCQQFNSYPLTFGGGTKVEIK	fold	43.3
